- assay-summary: Quantitative highthroughput screen to assess conditional lethalithy of NOMO1 cells grown in RPMI1640 with dialyzed fetal bovine serum (RPMI+ds) (AID 1963877); further: nearly all actives have a fitted effect of over 30% in size
- conditions: NOMO1 in RPMI+dialyzed FBS viability, ATP luminescence, 48 h; series mostly up to 45.8 µM
Results filed as inconclusive are left out. Active and inactive are the calls of the source. The call rests on the fitted dose curve; in most records, active means well fitted cell-killing curve with a large enough effect; inconclusive means small, poorly fitted or top-dose-only effect; inactive means flat fitted curve, though single readings scatter.
Returns: one label drawn from t (active), f (inactive)

- CCN(CC)CCNC(=O)c1c(C)[nH]c(C=C2C(=O)Nc3ccc(F)cc32)c1C: t
- OC[C@H]1O[C@@H](O[C@H]2[C@@H](O)[C@@](O)(CO)O[C@@H]2CO)[C@H](O)[C@@H](O)[C@@H]1O: f

(Q) Hey, what did the test say about O=c1ccn([C@@H]2O[C@H](CO)[C@H](O)[C@H]2O)c(=O)[nH]1 ?
(A) f

(Q) Param item: O=C(CCCCCCC(=O)Nc1cccnc1)NO
(A) t

(Q) Same lookup for Cc1nnc(NS(=O)(=O)c2ccc(N)cc2)s1 , please.
(A) t

(Q) Can you check CCCCN(CCCC)C(=O)CN1C[C@H](c2ccc3c(c2)OCO3)[C@@H](C(=O)O)[C@@H]1c1ccc(OC)cc1 next?
(A) f

(Q) Next: CC1(C)S[C@H]2[C@H](NC(=O)[C@@H](N)c3ccc(O)cc3)C(=O)N2[C@@H]1C(=O)O
(A) t

(Q) // query: Nc1ccn([C@@H]2CS[C@H](CO)O2)c(=O)n1
(A) f

(Q) Next up: CC1=C(C(=O)O)N2C(=O)[C@@H](NC(=O)C(N)c3ccccc3)[C@H]2SC1 (stereo not given in full)
(A) f

(Q) Could you do the same for Nc1nc(N)nc(-c2cc(Cl)ccc2Cl)n1 , please?
(A) f
